Each entry below carries its reported IC50 at 6 h.
- Experiment Notes: Cytotoxicity of compounds and their P450-generated metabolites, Hep3B DataChip stamped with MetaChip
- Experimental Parameters: human, IC50, CYP1A2, Hep3B DataChip; MetaChip spots with CYP1A2
Numeric answer only, unit µM assumed.

As a guide, the following entries are already answered.
Compound	IC50 at 6 h [µM]
COc1cccc2c1C(=O)c1c(O)c3c(c(O)c1C2=O)C[C@@](O)(C(=O)CO)C[C@@H]3O[C@H]1C[C@H](N)[C@H](O)[C@H](C)O1	1.01
NNC(=O)c1ccncc1	353
CN(C)CCC=C1c2ccccc2CCc2ccccc21	75

Find the recorded IC50 at 6 h belonging to C=C[C@H]1C[N@@]2CC[C@H]1C[C@@H]2[C@@H](O)c1ccnc2ccc(OC)cc12 and report it. 92.9

Find the recorded IC50 at 6 h belonging to CCN(CC)CCCC(C)Nc1ccnc2cc(Cl)ccc12 (centres unmarked) and report it. 184

Find the recorded IC50 at 6 h belonging to Cn1c(=O)c2[nH]cnc2n(C)c1=O and report it. 239

Find the recorded IC50 at 6 h belonging to CC(=O)Nc1ccc(O)cc1 and report it. 2590

Find the recorded IC50 at 6 h belonging to C[C@H]1O[C@@H](O[C@H]2[C@@H](O)C[C@H](O[C@H]3[C@@H](O)C[C@H](O[C@H]4CC[C@@]5(C)[C@H](CC[C@@H]6[C@@H]5C[C@@H](O)[C@]5(C)[C@@H](C7=CC(=O)OC7)CC[C@]65O)C4)O[C@@H]3C)O[C@@H]2C)C[C@H](O)[C@@H]1O and report it. 1.29

Find the recorded IC50 at 6 h belonging to O=c1[nH]cc(F)c(=O)[nH]1 and report it. 218

Find the recorded IC50 at 6 h belonging to CN(Cc1cnc2nc(N)nc(N)c2n1)c1ccc(C(=O)N[C@@H](CCC(=O)O)C(=O)O)cc1 [Methotrexate] and report it. 2.79

Find the recorded IC50 at 6 h belonging to Cl[C@H]1[C@H](Cl)[C@@H](Cl)[C@@H](Cl)[C@H](Cl)[C@H]1Cl and report it. 2730
